Test system: PC-3 prostate
Assay: NCI tumour cell line growth inhibition, 48 h; in the data active = GI50 below about 0.43 µM; inactive = the rest
Select the correct class. Options are active, inactive and nothing else.

# example entries with known answers
compound | tested target | answer label
COc1cc(-c2cc(-c3ccc(Nc4nc(Nc5ccc(Cl)cc5)nc(Nc5ccc(Cl)cc5)n4)cc3)no2)cc(OC)c1OC | PC-3 prostate | inactive
COc1ccc(COc2ccc(Cc3cnc(N)nc3N)cc2OC)cc1 | PC-3 prostate | inactive
c1ccc2cc(Cn3c(-c4cccc5ccccc45)[n+](Cc4ccc5ccccc5c4)c4c5ccccc5c5ccccc5c43)ccc2c1 | PC-3 prostate | active
C=C1[C@H](O)C[C@@H](C(C)C(O)CC=C(C)C)[C@@H](O)[C@@H]2C(C)=CC[C@@H]12 (stereo partly specified) | PC-3 prostate | inactive
Cc1cc(C2CC(O)C(CO)O2)c(Br)cc1Br (stereo unspecified) | PC-3 prostate | inactive

Problem: Dear all, I need the recorded test outcome for "c1ccc(OCC[P+](c2ccccc2)(c2ccccc2)c2ccccc2)cc1" , thank you.
Solution: inactive

Problem: Record lookup: outcome of this test for "Nc1cc2c3ccccc3ccc2c2ccccc12" ?
Solution: inactive

Problem: I would be grateful if you could indicate the recorded call for "CC(=O)OCc1cc[c]([Hg][Cl])o1" .
Solution: inactive

Problem: Lab log entry: "CN1c2cccc[c]2[Sn]([CH3])([CH3])[c]2ccccc21" — outcome as called in the assay?
Solution: active

Problem: Which outcome did this test record for the compound "COc1cc(/C=C/[N+](=O)[O-])cc(OC)c1" ?
Solution: inactive

Problem: What is the recorded call for this compound in the test? "O=C(/C=C/c1cc2ccccc2[nH]c1=O)c1ccc(O)cc1"
Solution: inactive

----------
Reported TGI values are given for each entry in this list.
Tested on: KM20L2 colon
Assay: NCI tumour cell line growth inhibition, 48 h

molecule | TGI
O=S1(=O)CC#CC[C@@H](CO)[C@@H](CO)CC#CC1 | > 100 µM
O/N=C1/C(=C/c2ccc(Br)cc2)CCCC1C(NO)c1ccc(Br)cc1 (centres undefined) | 32.5 µM

Problem: What does the data say about its TGI? Entry: "O=C1/C(=C/c2ccc(C(=O)O)cc2)CNC/C1=C\c1ccc(C(=O)O)cc1"
Solution: > 100 µM

Problem: Consider the molecule shown here: "CC(C)c1cccc(C(C)C)c1NC(=O)/C(Cc1nc2ccc(Cl)cc2[nH]c1=O)=N\NC(=O)C[N+](C)(C)C" What is its recorded TGI?
Solution: > 100 µM

Problem: Requested read-out: TGI. Entry: "CC(C)(C)c1cc([Si](C)(C)C)c(C#N)c([Si](C)(C)C)c1"
Solution: > 100 µM

Problem: State the recorded TGI for this entry: "COc1ccc(/C=N/NC(=O)NCCNCCO)cc1"
Solution: > 100 µM

Problem: State the recorded TGI for this entry: COC(=O)C12CCC(CC1=O)C2(C)C (centres undefined)
Solution: > 100 µM

----------
Tested on: SK-MEL-2 melanoma
Assay: NCI tumour cell line growth inhibition, 48 h
quantity name: TGI (µM)
// note: answer is a bare numeric in µM

Below, each entry is followed by its recorded TGI result.
smiles data | recorded measurement
CN(N=O)N1C(=O)SCC(c2ccccc2)(c2ccccc2)C1=O | 54.5
COc1ccc2cc(CNCCOCCOCCNCc3ccc4cc(OC)ccc4c3)ccc2c1 | 3.18

The record that follows has no TGI shown yet.
Problem: Entry "COc1cc2ccnc3c2c(c1OC)N(C)C=C3" : reported TGI = ?
Solution: 57.6

----------
Test system: MALME-3M melanoma
Test: NCI tumour cell line growth inhibition, 48 h; in the data active = GI50 below about 0.43 µM; inactive = the rest
One label from this list, please: active, inactive

compound | answer label
COc1ccc(CNCCN2C(=O)c3ccc4c5c(ccc(c35)C2=O)C(=O)N(CCNCc2ccc(OC)c(OC)c2OC)C4=O)c(OC)c1OC | active
Cc1cccc(Nc2ncc(-c3ccccc3)o2)c1 | inactive
CC(C)Cc1cc(-c2cccn2C)c(C#N)c(=O)[nH]1 | inactive

Problem: Kindly provide the recorded test outcome for the following compound: Nc1nc(N)c2c(n1)NC(c1ccc(Cl)cc1)C1CCc3ccccc3C1=N2 (stereo unspecified)
Solution: inactive

Problem: Entry C=C1[C@H](O)C[C@@H](C(C)C(O)CC=C(C)C)[C@@H](O)[C@@H]2C(C)=CC[C@@H]12 (stereo partly specified) : call = ?
Solution: inactive

Problem: Would you mind telling me which call this test gave "c1ccc2cc(Cn3c(-c4cccc5ccccc45)[n+](Cc4ccc5ccccc5c4)c4c5ccccc5c5ccccc5c43)ccc2c1" ?
Solution: active

Problem: For "O=C(Nc1n[nH]c2cc(-c3ccc(F)cc3)ccc12)C1CC1" , what call appears in the results of this test?
Solution: inactive

Problem: What call does the record list for "Cc1cc(C(=O)NOCCO)c(Nc2ccc(I)cc2F)n(C)c1=O" ?
Solution: active

Problem: Recorded call for "Nc1ncnc2c1ncn2Cc1ccc(CCl)cc1" ?
Solution: inactive

Problem: Any idea what this test logged for "COc1cc(N2CCN(C(C)C)CC2)ccc1Nc1nc(Nc2ccc(F)cc2C(N)=O)c2cc[nH]c2n1" ?
Solution: active

Problem: Which outcome did this test record for the compound O=[N+]([O-])c1ccc(NC(c2ccccc2)c2ccc3cccnc3c2O)cc1 (stereo unspecified) ?
Solution: inactive

Problem: What was the test verdict on CC1(/C=C/c2ccc(-c3ccccc3)cc2)CCn2cnc3ncnc(c32)N1O (stereo unspecified) ?
Solution: active

Problem: So what was the verdict on C#Cc1cccc(NC(=O)C2CCCCN2C(=O)CCl)c1 (stereo unspecified) in this test?
Solution: inactive

Problem: What outcome does the record of this test show for "CC(=O)OCc1cc[c]([Hg][Cl])o1" ?
Solution: inactive

Problem: Identify the outcome logged in this assay for the compound shown: "COc1ccc(COc2ccc(Cc3cnc(N)nc3N)cc2OC)cc1"
Solution: inactive

Problem: Which outcome did this test record for the compound "CCCCCCCC(=O)[O-].N.N.N.N.N.[Co+3].[O-][Cl+3]([O-])([O-])[O-]" ?
Solution: inactive

----------
Consider the following compounds and their measured TGI readings.
System: HT29 colon
Assay: NCI tumour cell line growth inhibition, 48 h

compound | TGI
O=C(/C=C/c1cc2ccccc2[nH]c1=O)c1ccc(O)cc1 | 12.1 µM
O=C(Cn1cc(I)c(C(=O)NCC(O)CO)n1)NCC(O)CO (stereo unspecified) | > 100 µM
Clc1ccc(CCNCCNC2(c3cc4ccccc4s3)CCCCC2)cc1Cl | 3.59 µM
CNC(=O)/C(C#N)=C(\N)N1CCCC1 | > 100 µM

Problem: Dear colleague, I am looking for the recorded TGI of the following compound: CCN1CCC(O)(/C=C/c2ccc(Cl)c(Cl)c2)C(C(=O)/C=C/c2ccc(Cl)c(Cl)c2)C1 (stereo unspecified)
Solution: 1.82 µM

Problem: Quick check: TGI of "COC(=O)[C@@]1(Cc2ccc(OC(C)=O)cc2)Cc2cc3ccccc3n2N1" ?
Solution: > 100 µM

----------
Reported TGI is given for each of the following molecules.
Tested on: NCI-H522 lung
Assay: NCI tumour cell line growth inhibition, 48 h

molecule | TGI
Nc1nc2c(nnn2C2C=C(CO)C(O)C2O)c(=O)[nH]1 (stereo unspecified) | > 100 µM
Cn1c(=Nc2ccccc2[N+](=O)[O-])sc2ccccc21 | > 100 µM
Clc1cccc(C=NC23CC4CC(CC(C4)C2)C3)c1Cl | > 10 µM

Problem: Sample "COc1cc(OC)c(OC)cc1/C=C/c1ccc2ccccc2n1" — what was its TGI?
Solution: > 10 µM

Problem: Looking for the measured TGI of "N#Cc1cc([N+](=O)[O-])ccc1NC(=O)C(=O)Nn1c(=S)[nH]c2ccccc2c1=O" , can you help?
Solution: > 100 µM

----------
Tested on: UACC-62 melanoma
Test: NCI tumour cell line growth inhibition, 48 h; in the data active = GI50 below about 0.43 µM; inactive = the rest
# output must be one of label 1 (active), label 0 (inactive)

Solved cases below.
compound | answer label
N/C(=N/O)NOCCC(N)C(=O)O (centres undefined) | label 0
Nc1cc2c3ccccc3ccc2c2ccccc12 | label 0
Cc1cccc(Nc2ncc(-c3ccccc3)o2)c1 | label 0
c1ccc2c(c1)CCCc1nnc3nc4ccccc4n3c1-2 | label 0
COc1cc2cc(C(=O)Nc3ccccc3)c(N)nc2cc1OC | label 0

Turning to the following compound.
Problem: Look up the recorded call for "COc1cccc(/C=C/C(=O)c2cc3c(N)c(C(=O)Nc4ccccc4)sc3nc2C)c1" in this test.
Solution: label 0

----------
Tested on: K-562 leukemia
Assay: NCI tumour cell line growth inhibition, 48 h; in the data active = GI50 below about 0.43 µM; inactive = the rest
Respond with a class label; see label 1 = active, label 0 = inactive

Solved entries:
compound | answer label
CC(C)Cc1cc(-c2cccn2C)c(C#N)c(=O)[nH]1 | label 0
Clc1ccc(Nc2nnc(COc3ccccc3)c3ccccc23)cc1 | label 0
COc1cc(/C=C/[N+](=O)[O-])cc(OC)c1 | label 0
CC(=O)Nc1ccc2c(c1)[nH]c(=O)c1cc(NC(C)=O)ccc12 | label 0
Cc1cccc(Nc2ncc(-c3ccccc3)o2)c1 | label 0

Now, please, on to the next compound.
Problem: Recorded test outcome, item O=[N+]([O-])c1ccc(NC(c2ccccc2)c2ccc3cccnc3c2O)cc1 (stereo unspecified)
Solution: label 1

Every entry's value here was drawn from PubChem BioAssay (NCI).
